Origin of values: patent US20240309007A1

- procedure.summary: Solubility of the crystalline form in buffers, SGF, FaSSIF, FeSSIF and water at 37° C. (HPLC; XRPD of undissolved solid)
- Format: physicochemical
- particulars: potassium hydrogen phthalate buffer, 37 °C, pH 3, aqueous buffer, thermodynamic from solid

compound	uom	solubility at 2 h
C[C@@H](N)COc1ccc(-c2cnc3ccc(N[C@H](C)c4cccc(F)c4)nn23)cc1 [crystalline form A of Compound 1 adipate]	µg/mL	1350

====

- procedure.summary: Solubility of the crystalline form in buffers, SGF, FaSSIF, FeSSIF and water at 37° C. (HPLC; XRPD of undissolved solid)
- Assay type: physicochemical
- particulars: KCl/HCl buffer, 37 °C, pH 1, simulated gastric fluid, thermodynamic from solid
- Source text: (1) a KCl/HCl buffer solution with a pH of 1.0, (2) a potassium hydrogen phthalate buffer solution with a pH of 3.0, (3) a sodium acetate trihydrate buffer solution with a pH of 4.5, (4) a potassium dihydrogen phosphate buffer solution with a pH of 6.0, (5) a potassium dihydrogen phosphate buffer solution with a pH of 7.5, (6) SGF (simulated gastric fluid), (7) FaSSIF (fasted state simulated intestinal fluids, pH=6.5), (8) FeSSIF (fed state simulated intestinal fluids, pH=5.0), and (9) water. […]

compound	solubility at 2 h
C[C@@H](N)COc1ccc(-c2cnc3ccc(N[C@H](C)c4cccc(F)c4)nn23)cc1 [crystalline form A of Compound 1 adipate]	20.4 mg/mL

====

- procedure.summary: Solubility of the crystalline form in buffers, SGF, FaSSIF, FeSSIF and water at 37° C. (HPLC; XRPD of undissolved solid)
- Type: physicochemical
- particulars: SGF (simulated gastric fluid), 37 °C, simulated gastric fluid, thermodynamic from solid

compound	solubility at 2 h, mg/mL
C[C@@H](N)COc1ccc(-c2cnc3ccc(N[C@H](C)c4cccc(F)c4)nn23)cc1 [crystalline form A of Compound 1 adipate]	15.6

====

- procedure.summary: Solubility of the crystalline form in buffers, SGF, FaSSIF, FeSSIF and water at 37° C. (HPLC; XRPD of undissolved solid)
- Format: physicochemical
- particulars: potassium dihydrogen phosphate buffer, 37 °C, pH 6, aqueous buffer, thermodynamic from solid

molecule	solubility at 24 h [µg/mL]
C[C@@H](N)COc1ccc(-c2cnc3ccc(N[C@H](C)c4cccc(F)c4)nn23)cc1 [crystalline form A of Compound 1 adipate]	1700

====

- procedure.summary: Solubility of the crystalline form in buffers, SGF, FaSSIF, FeSSIF and water at 37° C. (HPLC; XRPD of undissolved solid)
- Format: physicochemical
- particulars: FaSSIF (fasted state simulated intestinal fluid), 37 °C, pH 6.5, fassif, thermodynamic from solid

compound	solubility at 24 h
C[C@@H](N)COc1ccc(-c2cnc3ccc(N[C@H](C)c4cccc(F)c4)nn23)cc1 [crystalline form A of Compound 1 adipate]	225 µg/mL
